- experimentalTarget: S. pyogenes SKKanGAS, kanamycin survival, BacTiterGlo, 6 h
- procedureSummary: S. pyogenes SKKanGAS kanamycin growth inhibitors – SKKanGAS strain, luminescence, dose confirmation, streptokinase promoter inhibitor project, dose response (AID 1902);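 further: lower survival reflects blocked streptokinase promoter driving kanamycin resistance gene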
Activity calls are given as the source filed them.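 How the source made its calls: active means EC50 no more than a set limit of log units above the highest dose; inactive means the rest.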
// classify into active, inactive

**Query** Give the logged outcome of this assay for the following compound: `O=C(NC(=S)NNC(=O)[C@H]1C[C@@H]1c1ccccc1)c1ccc(F)cc1`
**Result** active

**Query** Give the logged outcome of this assay for the following compound: `COc1cc(/C=C2/SC(=S)N(Cc3ccccc3)C2=O)ccc1O`
**Result** active

**Query** Give the logged outcome of this assay for the following compound: CCCCCCC(=O)N/N=C/c1c(O)n(C(C)CC)c(=S)[nH]c1=O (stereo not given)
**Result** active

**Query** Give the logged outcome of this assay for the following compound: `O=S(=O)(Nc1ccc(-n2cccc2)cc1)c1ccc(Cl)c(Cl)c1`
**Result** active

**Query** Give the logged outcome of this assay for the following compound: `CC(C)(C)c1ccc(C(=O)Nc2ccc(F)cc2)s1`
**Result** inactive

###

- experimentalTarget: S. pyogenes SKKanGAS, kanamycin survival, BacTiterGlo, 6 h
- procedureSummary: S. pyogenes SKKanGAS kanamycin growth inhibitors – SKKanGAS strain, luminescence, dose confirmation, streptokinase promoter inhibitor project, dose response (AID 1902)
Activity calls are given as the source filed them.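 Rule for the calls: active = EC50 no more than a set limit of log units above the highest dose; inactive = the rest.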
// classify into 1 (active), -1 (inactive)

Example entries begin here.
C(=N\Nc1ncnc2sc3c(c12)CCC3)/c1cccs1 = 1
FC(F)(F)c1ccc(C2[C@H]3CN(Cc4cccnc4)[C@H](c4ccccc4)C34CC2(c2cccnc2)C4)cc1 (some centres not stated) = 1
CCCCCCCCCCCCC(NC(C)=O)(C(=O)OCC)C(=O)OCC = 1
COc1ccccc1N=Nc1ccc(O)c2ncccc12 = 1
Cn1c(O)c(N=Nc2nc(-c3ccccc3)cs2)c2ccccc21 = 1

**Query** Give the logged outcome of this assay for the following compound: `Cc1ccc(C(=O)NC(=S)NNC(=O)c2ccccc2O)cc1`
**Result** 1

**Query** Give the logged outcome of this assay for the following compound: `CCCC(=O)NCCc1ccc(F)cc1`
**Result** -1

**Query** Give the logged outcome of this assay for the following compound: `Cc1ccc(C)c(/C=N/NC(=S)NCCc2ccccc2)c1`
**Result** 1

**Query** Give the logged outcome of this assay for the following compound: `O=C(N/N=C/c1cc(Br)ccc1O)C(=O)Nc1ccccc1OC(F)(F)C(F)F`
**Result** 1

**Query** Give the logged outcome of this assay for the following compound: `CC(C)COc1ccc(-c2nn(-c3ccccc3)cc2/C=C2/SC(=S)N(CC(=O)O)C2=O)cc1`
**Result** 1

**Query** Give the logged outcome of this assay for the following compound: `O=C(Nc1ccccc1C(=O)O)c1cccc(NC(=O)c2ccc(Br)o2)c1`
**Result** 1

**Query** Give the logged outcome of this assay for the following compound: `O=c1cc(CSc2ccc(Cl)cc2)nc(-c2ccccn2)[nH]1`
**Result** 1

**Query** Give the logged outcome of this assay for the following compound: `CCc1cc2c(COC(=O)c3cccc(NS(C)(=O)=O)c3)cc(=O)oc2cc1O`
**Result** 1

**Query** Give the logged outcome of this assay for the following compound: `CCOc1cc(/C=C\[N+](=O)[O-])ccc1OCC(=O)Nc1ccccc1C`
**Result** 1

**Query** Give the logged outcome of this assay for the following compound: `O=C(Oc1c(Cl)cc(Cl)c2cccnc12)c1cccs1`
**Result** 1

**Query** Give the logged outcome of this assay for the following compound: `Cc1cc(/C=C2\SC(=S)NC2=O)c(C)n1-c1cccc(O)c1`
**Result** 1

**Query** Give the logged outcome of this assay for the following compound: CCN(CC)S(=O)(=O)c1ccc(N2CCOCC2)c(NC(=O)C2CSC3(C)CCC(=O)N23)c1 (configuration not stated)
**Result** -1

**Query** Give the logged outcome of this assay for the following compound: CCCNC1=C(C)C(=O)C2=C(C1=O)C(COC(N)=O)[C@]1(OC)C3NC3CN21 (some centres not stated)
**Result** 1

**Query** Give the logged outcome of this assay for the following compound: `CC(C)(C)c1ccc(CN(Cc2ccco2)Cc2nnnn2C2CCCC2)cc1`
**Result** 1

**Query** Give the logged outcome of this assay for the following compound: `CC1CCN(c2nc(-c3ccc(F)cc3)cc(C(F)(F)F)n2)CC1`
**Result** 1

**Query** Give the logged outcome of this assay for the following compound: `O=C(COc1c(Cl)cccc1Cl)Nc1ccccc1N1CCCC1`
**Result** 1

**Query** Give the logged outcome of this assay for the following compound: `O=S(=O)(Nc1ccc(N=Nc2ccc(O)c3ccccc23)cc1)c1ccccc1`
**Result** 1

###

- experimentalTarget: S. pyogenes SKKanGAS, kanamycin survival, BacTiterGlo, 6 h
- procedureSummary: S. pyogenes SKKanGAS kanamycin growth inhibitors – SKKanGAS strain, luminescence, dose confirmation, streptokinase promoter inhibitor project, dose response (AID 1902);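 active means EC50 no more than a set limit of log units above the highest dose; inactive means the rest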
// classify into active, inactive

Cc1cc(NC(=O)c2ccc3c(c2)OCCO3)ccc1NC(=O)c1cc2ccccc2o1 = active

Consider now this further molecule.
**Query** Give the logged outcome of this assay for the following molecule: `O=C(Nc1ccc(Cl)c(Cl)c1)Nc1nccs1`
**Result** active

###

- experimentalTarget: S. pyogenes SKKanGAS, kanamycin survival, BacTiterGlo, 6 h
- procedureSummary: S. pyogenes SKKanGAS kanamycin growth inhibitors – SKKanGAS strain, luminescence, dose confirmation, streptokinase promoter inhibitor project, dose response (AID 1902);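 active = EC50 no more than a set limit of log units above the highest dose; inactive = the rest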
// classify into y for active, n for inactive

Example entries begin here.
O=C1C(=O)c2ccccc2-c2ccccc21 = y
Cc1ccc(C(=O)NNC(=S)NC(=O)c2ccc(Cl)cc2Cl)cc1 = y

**Query** Give the logged outcome of this assay for the following molecule: `CC(C)(C)c1ccc(Cn2ccc(-c3ccc4c(c3)OCO4)n2)cc1`
**Result** y

###

# maps each entry to its pEC50
- experimentalTarget: S. pyogenes SKKanGAS, kanamycin survival, BacTiterGlo, 6 h
- procedureSummary: S. pyogenes SKKanGAS kanamycin growth inhibitors – SKKanGAS strain, luminescence, dose confirmation, streptokinase promoter inhibitor project, dose response (AID 1902);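 further: lower survival reflects blocked streptokinase promoter driving kanamycin resistance gene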
pEC50: −log10 of the molar value.

Use these answered entries as a reference point.
COC(=O)c1c(NC(=O)COc2ccc(Cl)cc2)sc2c1CC(C)(C)NC2(C)C = 4.90
CCOc1ccc(-c2nc3n(c(=O)c2C#N)CCCS3)cc1 = 5.13
CCOC(=O)C1=C(C)N=c2s/c(=C\c3ccc(O)c([N+](=O)[O-])c3)c(=O)n2C1c1ccccc1OC (centres undefined) = 5.16
COc1cnc(-c2ccccn2)nc1Oc1ccccc1 = 5.69

**Query** Bench note: what pEC50 did `NC(=NCCCCCCN=C(N)/N=C(\N)Nc1ccc(Cl)cc1)/N=C(\N)Nc1ccc(Cl)cc1` show?
**Result** 6.10

**Query** Bench note: what pEC50 did `Oc1cccc2ccc(/C=C/c3ccccc3Br)nc12` show?
**Result** 6.80

**Query** Bench note: what pEC50 did Cc1ccnc(NC(c2ccsc2)c2ccc3ccc(C)nc3c2O)c1 (centres undefined) show?
**Result** 4.93

**Query** Bench note: what pEC50 did COc1c(N2CCN(C(=S)NC3CC4CCC3C4)C(C)C2)c(F)cc2c(=O)c(C(=O)O)cn(C3CC3)c12 (centres undefined) show?
**Result** 5.51

**Query** Bench note: what pEC50 did `CC[C@H]1OC(=O)C[C@@H](O)[C@H](C)[C@@H](O[C@@H]2O[C@H](C)C[C@H](N(C)C)[C@H]2O)[C@@H](CC=O)C[C@@H](C)C(=O)C=C[C@]2(C)O[C@H]2[C@@H]1C` show?
**Result** > 7.22

###

- experimentalTarget: S. pyogenes SKKanGAS, kanamycin survival, BacTiterGlo, 6 h
- procedureSummary: S. pyogenes SKKanGAS kanamycin growth inhibitors – SKKanGAS strain, luminescence, dose confirmation, streptokinase promoter inhibitor project, dose response (AID 1902);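 further: lower survival reflects blocked streptokinase promoter driving kanamycin resistance gene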
Calls of active or inactive are those of the source.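 Rule for the calls: active = EC50 no more than a set limit of log units above the highest dose; inactive = the rest.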
// classify into active, inactive

Example entries begin here.
Cc1[nH]c(N=Nc2ccccc2)nc1N=Nc1ccccc1 = active
CCCCC(CC)CN1C(=O)/C(=C/c2ccncc2)SC1=S (stereo not given) = active
COC(=O)c1c(C)[nH]c(C(=O)OCC(=O)N(CC(C)C)c2c(N)n(Cc3ccccc3)c(=O)[nH]c2=O)c1C = active
CC(C)(C)NS(=O)(=O)c1ccc(NS(=O)(=O)Cc2ccccc2)cc1 = inactive

Consider now this further compound.
**Query** Give the logged outcome of this assay for the following compound: `COc1cccc(C(=O)OCC(=O)Nc2nnc(-c3ccccc3)o2)c1`
**Result** active

###

- experimentalTarget: S. pyogenes SKKanGAS, kanamycin survival, BacTiterGlo, 6 h
- procedureSummary: S. pyogenes SKKanGAS kanamycin growth inhibitors – SKKanGAS strain, luminescence, dose confirmation, streptokinase promoter inhibitor project, dose response (AID 1902);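 further: lower survival reflects blocked streptokinase promoter driving kanamycin resistance gene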
The source made the active and inactive calls.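 The calls were made as follows: active = EC50 no more than a set limit of log units above the highest dose; inactive = the rest.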
// classify into yes for active, no for inactive

COc1cc(F)ccc1CN1CCC(n2nccc2NC(=O)C2CCOC2)CC1 (stereo not given) = no
Cc1cccc(C)c1-n1cccc1/C=C1\SC(=S)N(c2cccc(C(=O)O)c2)C1=O = yes
Oc1nc(Nc2ccc(F)cc2)sc1/C=C1\C=Nc2ccccc21 = yes
CCCn1cc(CN2CCC(n3nccc3NC(=O)c3ccccc3)CC2)c(C)n1 = no
Cc1ccc(NC(=S)c2nc3ccccc3[nH]2)c(C)c1 = yes

**Query** Give the logged outcome of this assay for the following compound: CC(=O)O[C@H]1C[C@@]2(C)[C@@H](C[C@@H](O)[C@H]3[C@@]4(C)CC[C@@H](O)[C@@H](C)C4CC[C@@]32C)/C1=C(\CCC=C(C)C)C(=O)O (stereo not given in full)
**Result** yes

**Query** Give the logged outcome of this assay for the following compound: `CCNC(=O)c1c(NC(=O)c2cc(-c3cc(C)ccc3O)n[nH]2)sc2c1CCCC2`
**Result** yes

**Query** Give the logged outcome of this assay for the following compound: `Cc1nc(-c2ccccn2)nc(SCC(=O)c2ccccc2)c1Cl`
**Result** yes

**Query** Give the logged outcome of this assay for the following compound: `C/C(=N\NC(=O)c1ccccc1O)C1C(=O)c2ccccc2C1=O`
**Result** yes

**Query** Give the logged outcome of this assay for the following compound: CCc1ccc2c(c1)C1(NN=C(c3cccc4ccccc34)S1)C(=O)N2 (stereo not given)
**Result** yes
